Below, each entry is listed alongside its reported pKd.
molecular target: human TGFßRII (antigen of the Octet experiments) (human, UniProt P37173 23-166); experiment: BLI (Octet)
Sequence (P37173 23-166): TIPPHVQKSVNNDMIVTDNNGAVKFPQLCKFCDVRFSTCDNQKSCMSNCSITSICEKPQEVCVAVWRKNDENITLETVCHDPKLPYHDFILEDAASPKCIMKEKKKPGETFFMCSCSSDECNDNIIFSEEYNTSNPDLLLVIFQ
pKd: −log10 of the molar value.

BINDER	pKd
H1.83 L1 XENP34539 (antibody, V domains shown) VH: QLQVQESGPGLVKPSETLSLTCTVSGGSISNSYFSWGWIRQPPGKGLEWIGSFYYGEKTYYNPSLKSRATISIDTSKSQFSLKLSSVTAADTAVYYCPRGPTAIRGVIDSWGQGTLVTVSS VL: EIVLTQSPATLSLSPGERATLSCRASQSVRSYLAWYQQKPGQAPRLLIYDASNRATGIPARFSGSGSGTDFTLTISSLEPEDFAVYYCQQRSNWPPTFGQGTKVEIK	8.46
H1.98 L1 XENP34554 (antibody, V domains shown) VH: QLQVQESGPGLVKPSETLSLTCTVSGGSISNSYFSWGWIRQPPGKGLEWIGSFYYGEKTYYNPSLKSRATISIDTSKSQFSLKLSSVTAADTAVYYCPRGPTMIRGAIDSWGQGTLVTVSS VL: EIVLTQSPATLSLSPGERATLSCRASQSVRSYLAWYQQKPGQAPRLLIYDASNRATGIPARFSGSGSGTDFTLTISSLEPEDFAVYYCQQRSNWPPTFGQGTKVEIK	9.12
